Some compounds, each annotated with its measured Cmax.
- Method description: Cmax in monkey at 0.32 mg/kg, po by cassette assay
- Assay type: ADME, organism-based, Macaca mulatta
- Design: dose 0.32 mg/kg, route oral
- Assay setup: rhesus monkey, in vivo

Compound: CC(C)Oc1cc(-c2ccc(CCNC[C@H](O)c3ccccc3)cc2)ccc1C(=O)O
Unit symbol: ng/mL
Cmax: 185
//
Compound: CC(C)Oc1cc(-c2ccc(CCNC[C@H](O)c3cccc(Cl)c3)cc2)ccc1C(=O)O
Unit symbol: ng/mL
Cmax: 171

====

- Method description: AUC (0 to 24 hrs) in dog at 3.2 mg/kg, po by cassette assay
- Assay type: ADME, organism-based, Canis lupus familiaris
- Set-up: time < 24 hr, dose 3.2 mg/kg, route oral
- Assay setup: plasma
Assay endpoint: AUC(0-t) at 24 h

Compound: CCOC(=O)COc1ccc2c(c1)C[C@@H](NC[C@H](O)c1cccc(Cl)c1)CCC2
Assay endpoint: AUC(0-t) at 24 h
Measurement: 10.6 µg·h/mL

====

- Method description: in vivo
- Assay setup: dog, plasma, po, 1 mg/mL
Assay endpoint: AUC(0-t) at 24 h (ng·h/mL)

Compound: O=C(O)c1ccc(Oc2ccc(CCNC[C@H](O)c3cccc(Cl)c3)cc2)cc1
Assay endpoint: AUC(0-t) at 24 h
Measurement: 2470

====

- Method description: Cmax […] at 1.0 mg/kg, po by cassette assay
- Type: ADME, organism-based
- Set-up: dose 1 mg/kg, route oral
- Assay setup: in vivo

Compound: CCOC(=O)COc1ccc2c(c1)C[C@@H](NC[C@H](O)c1cccc(Cl)c1)CCC2
Cmax (ng/mL): 1340

====

- Method description: Total clearance in monkey at 0.83 mg/kg, iv by cassette assay
- Assay type: ADME, organism-based, Macaca mulatta
- Design: dose 0.83 mg/kg, route intravenous
- Assay setup: rhesus monkey, in vivo
Assay endpoint: clearance (mL/min/kg)

Compound: CCOC(=O)COc1ccc2c(c1)C[C@@H](NC[C@H](O)c1cccc(Cl)c1)CCC2
Assay endpoint: clearance
Measurement: 11.8

====

- Method description: Cmax in dog at 3.2 mg/kg, po by cassette assay
- Type: ADME, organism-based, Canis lupus familiaris
- Design: dose 3.2 mg/kg, route oral
- Assay setup: in vivo

Compound: CCOC(=O)COc1ccc2c(c1)C[C@@H](NC[C@H](O)c1cccc(Cl)c1)CCC2
Unit symbol: µg/mL
Cmax: 2.07

====

Listed below: half-life values for each entry.
- Method description: in vivo
- Assay setup: dog, iv, 1 mg/mL
Assay endpoint: half-life (h)

Compound: O=C(O)c1ccc(-c2ccc(CCNC[C@H](O)c3cccc(Cl)c3)cc2)cc1
Assay endpoint: half-life
Measurement: 12.3

Compound: O=C(O)c1ccc(Oc2ccc(CCNC[C@H](O)c3cccc(Cl)c3)cc2)cc1
Assay endpoint: half-life
Measurement: 6.2

====

- Method description: Terminal half life in monkey at 0.32 mg/kg, iv by cassette assay
- Assay type: ADME, organism-based, Macaca mulatta
- Design: dose 0.32 mg/kg, route intravenous
- Assay setup: rhesus monkey, in vivo, read-out: beta t1/2 (converted)

Compound: CC(C)Oc1cc(-c2ccc(CCNC[C@H](O)c3cccc(Cl)c3)cc2)ccc1C(=O)O
half-life, min: 1120

====

- Method description: AUC (0 to 24 hrs) in dog at […], po by cassette assay
- Assay type: ADME, organism-based, Canis lupus familiaris
- Design: time < 24 hr, route oral
- Assay setup: plasma

Compound: O=C(O)c1ccc(-c2ccc(CCNC[C@H](O)c3cccc(Cl)c3)cc2)cc1
Unit symbol: ng·h/mL
AUC(0-t) at 24 h: 1980

Source: ChEMBL document CHEMBL1142325
